Assay: chemical genetic growth profiling, strain panel (AID 1159580);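 note: tested at 20 µM; growth read once vehicle control cultures reached saturation at 30 °C; 1 = growth at the plate median or of vehicle wells; lower values mean less growth of the strain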
Settings: S. cerevisiae deletion strains, growth OD, locus YIL073C, strain SPO22, hits give low values
About 2,000 (36%) of roughly 5,500 compounds were called active. About 18% were inconclusive and are not listed. This is one part of the list.
Quick list: normalized growth per entry.

Example entries and their recorded answers appear below.
- CCOC(=O)C(C)(C)Oc1ccc(Cl)cc1: 1.02 (inactive)
- COc1ccc2c(c1)OCc1c-2oc2cc(OC)ccc12: 1.18 (inactive)
- Cc1cc(O)c(C)c(O)c1C(=O)O: 0.806 (inactive)

Which normalized growth reading was recorded for the compound CC(=O)NC1SCCC1=O (configuration not stated) ?
1.04 (inactive)

Which normalized growth reading was recorded for the compound Cc1c(O)c(C(=O)CC(C)C)c2oc3c(C(=O)CC(C)C)c(O)c(C)c(O)c3c2c1O ?
0.983 (inactive)

Which normalized growth reading was recorded for the compound N=c1ccn2c(n1)O[C@@H]1C2O[C@H](CO)[C@H]1O (some centres not stated) ?
1.04 (inactive)

----------
Assay: chemical genetic growth profiling, strain panel (AID 1159580);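 note: tested at 20 µM; growth read once vehicle control cultures reached saturation at 30 °C; 1 = growth at the plate median or of vehicle wells; lower values mean less growth of the strain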
Conditions: S. cerevisiae deletion strains, growth OD, locus YGL227W, strain vid30, hits give low values
The whole screen tested about 5,500 compounds, of which about 2,000 (36%) were called active. About 18% were inconclusive and are not listed. The list shows a part of the results.
# strict inequality: normalized growth < 1 yields 1.0, everything else yields 0.0

• COc1cc(O)c(C(=O)/C=C/c2ccc(OC)c(O)c2)c(OC)c1 = 1.0
• COc1cc(O)c(C(=O)/C=C/c2ccccc2)c(OC)c1 = 1.0
• COc1cc2c(cc1OC)[C@@H]1C(=O)c3ccc(OC)c(CC=C(C)C)c3O[C@@H]1CO2 = 0.0
• CC(=O)OC(C)(C)[C@@H]1Cc2cc3ccc(=O)oc3cc2O1 = 1.0
• CCOC(=O)c1c(C)cc(O)c(C=O)c1O = 1.0

Identify whether the molecule CN1CCC(=C2c3ccccc3Sc3ccccc32)CC1 records normalized growth below 1.
0.0

----------
Assay: chemical genetic growth profiling, strain panel (AID 1159580);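 note: tested at 20 µM; growth read once vehicle control cultures reached saturation at 30 °C; 1 = growth at the plate median or of vehicle wells; lower values mean less growth of the strain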
Conditions: S. cerevisiae deletion strains, growth OD, locus YJL134W, strain LCB3, hits give low values
Hit rate of the full screen: of about 5,500 compounds, about 2,000 (36%) were called active. Another 18% or so got no clear call; they are omitted. Some of the results follow.
RECORDED METRIC: normalized growth
# output: bare number, no unit

* COc1cc(NS(=O)(=O)c2ccc(N)cc2)nc(OC)n1 | 0.986
* CN1CCCN=C1COC(=O)C(O)(c1ccccc1)C1CCCCC1 (configuration not stated) | 1.01
* COP(=O)(OC)OC=C(Cl)Cl | 1
* CCC(=O)O[C@H]1[C@H](O[C@@H]2[C@@H](C)[C@H](O[C@H]3C[C@@](C)(OC)[C@@H](O)[C@H](C)O3)[C@@H](C)C(=O)O[C@H](CC)[C@@](C)(O)[C@H](O)[C@@H](C)C(=O)[C@H](C)C[C@@]2(C)O)O[C@H](C)C[C@@H]1N(C)C | 1.02
* CCOC(=O)CCC(=O)O[C@H]1[C@H](O[C@@H]2[C@@H](C)[C@H](O[C@H]3C[C@@](C)(OC)[C@@H](O)[C@H](C)O3)[C@@H](C)C(=O)O[C@H](CC)[C@@](C)(O)[C@H](O)[C@@H](C)C(=O)[C@H](C)C[C@@]2(C)O)O[C@H](C)C[C@@H]1N(C)C | 0.993
* CC(=O)NC1SCCC1=O (configuration not stated) | 1.01

As a next step, examine the compound that follows.
Which normalized growth reading was recorded for the compound COc1cc2c(cc1OC)Cc1cc(OC)c(OC)cc1Cc1cc(OC)c(OC)cc1C2 ?
0.998
